Data credit: patent US20200399389A1

# Experimental System: T1, HIS-tagged human CD73 (huCD73-HIS) (human, UniProt P21589 27-547)
# T1 sequence: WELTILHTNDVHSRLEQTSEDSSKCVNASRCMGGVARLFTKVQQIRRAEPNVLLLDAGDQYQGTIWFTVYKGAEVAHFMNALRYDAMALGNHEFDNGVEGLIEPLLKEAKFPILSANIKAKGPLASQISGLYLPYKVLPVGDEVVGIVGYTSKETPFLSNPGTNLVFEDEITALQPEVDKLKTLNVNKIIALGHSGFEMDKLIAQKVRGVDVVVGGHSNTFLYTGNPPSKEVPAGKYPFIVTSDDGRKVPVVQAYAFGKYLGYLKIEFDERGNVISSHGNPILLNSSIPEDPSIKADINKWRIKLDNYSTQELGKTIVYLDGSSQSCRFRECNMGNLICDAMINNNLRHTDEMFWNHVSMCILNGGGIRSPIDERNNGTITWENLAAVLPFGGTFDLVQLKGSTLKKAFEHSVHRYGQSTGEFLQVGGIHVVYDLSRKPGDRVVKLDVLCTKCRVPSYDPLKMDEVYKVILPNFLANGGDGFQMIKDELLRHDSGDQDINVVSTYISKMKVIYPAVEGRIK
# Assay Remarks: cell-based or functional assay
The entries below come with measured IC50 (nM), huCD73 enzymatic assay in solution values attached.
Numbers only; they are read as nM.

Would you please look over these solved cases?
>  <Binder>
60A9-H1L1 (antibody, V domains shown) VH: EVQLVESGGGLVQPGQSLKLSCKASGYAFSSYWMNWVRQAPGKGLEWMGQIYPGDGDTYYNPSVKGRFTISADTSKNTAYLQLNNLRAEDTAVYYCAREAIYYGNYVFTYWGQGTLVTVSS VL: DIQMTQSPSLLSASLGDRVTITCKSSQSLLNSSNQKNYLAWYQQKPGQSPKLLIYFASTRDSGVPDRFSGSGSGTDFTLTISSLEPEDFATYYCQQHYSTPLTFGGGTKLEIK

>  <Unit Abbrev>
nM

>  <Measured Number>
3.34

$$$$
>  <Binder>
60A9-H2L2 (antibody, V domains shown) VH: EVQLVESGGGLVQPGGSLRLSCKASGYAFSSYWMNWVRQAPGKGLEWVGQIYPGDGDTYYNPSVKGRFTISADTSKNTLYLQMNSLRAEDTAVYYCAREAIYYGNYVFTYWGQGTLVTVSS VL: DIVMTQSPSSLSASLGDRVTITCKSSQSLLNSSNQKNYLAWYQQKPGQSPKLLIYFASTRDSGVPDRFSGSGSGTDFTLTISSLEPEDFATYYCQQHYSTPLTFGGGTKLEIK

>  <Unit Abbrev>
nM

>  <Measured Number>
11.2

$$$$

We now examine a further binder.
Return value of IC50 (nM), huCD73 enzymatic assay in solution for input 60A9-H4L3 (antibody, V domains shown) VH: EVQLVESGGGLVQPGQSLKLSCKASGYAFSSYWMNWVRQAPGKGLEWIGQIYPGDGDTYYSGSVKGRATLSADKSKNTAYLQLNNLRAEDTAVYYCAREAIYYGNYVFTYWGQGTLVTVSS VL: DIQMTQSPSLLSASLGDRVTITCKSSQSLLNSSNQKNYLAWYQQKPGQSPKLLVYFASTRDSGVPDRFSGSGSGTDFTLTISSLEPEDFATYYCQQHYSTPLTFGGGTKLEIK , no commentary.
2.74
